Parameter Measured: Stability (pH 8) (T90 in hrs)
Please reply with the bare figure in hrs and do not write the unit itself.

Would you please look over these solved cases?
Oc1ccc(Cc2nc3c(Cc4ccccc4)nc(-c4ccc(O)cc4)cn3c2O)cc1 = 1.7
O=c1c(Cc2cccs2)nc2c(Cc3ccccc3)[nH]c(-c3ccccc3)cn1-2 = 2.9
O=c1c(Cc2ccco2)nc2c(Cc3ccccc3)[nH]c(-c3ccccc3)cn1-2 = 4.1

Would you kindly look at the next entry?
Data request, read-out Stability (pH 8) (T90 in hrs), for Cc1[nH]c(-c2ccccc2)cn2c(=O)c(Cc3ccc(O)cc3)nc1-2 2.8
